Assay: qHTS for Inhibitors of the Functional Ribonucleoprotein Complex (vRNP) of Lassa (LASV) Arenavirus: Viability assay - alamar blue signal for LASV Primary Screen (AID 1347083); note: nearly all actives have a fitted effect of over 80% in size
Details: cell viability, alamar blue fluorescence (LASV minigenome counter-screen); series mostly up to 57.5 µM
Inconclusive results are not listed. Active and inactive are the calls of the source. Calls come from the whole dose curve; tested in HEK293 reporter line.
Outcomes: label 1 for active, label 0 for inactive

- molecule: "C#CCOC(C(=O)OCCN(C)C)(c1ccccc1)c1ccccc1"
  categoryLabel: "label 0"
- molecule: "O=c1[nH]cc(F)c(=O)[nH]1"
  categoryLabel: "label 0"
- molecule: "C[N+]1(C)CCC(OC(=O)C(O)(c2ccccc2)C2CCCC2)C1 (stereo unspecified)"
  categoryLabel: "label 0"
- molecule: "c1ccc(C2CC2)c(OCC2=NCCN2)c1"
  categoryLabel: "label 0"
- molecule: "N[C@@H](Cc1cc(I)c(Oc2cc(I)c(O)c(I)c2)c(I)c1)C(=O)O"
  categoryLabel: "label 0"
- molecule: "NS(=O)(=O)Cc1noc2ccccc12"
  categoryLabel: "label 0"
- molecule: "O=C1[C@H](CC[C@H](O)c2ccc(F)cc2)[C@@H](c2ccc(O)cc2)N1c1ccc(F)cc1"
  categoryLabel: "label 0"
- molecule: "COC(=O)Nc1nc2ccc(C(=O)c3ccccc3)cc2[nH]1"
  categoryLabel: "label 1"
- molecule: "CN(C)CCc1ccc(O)cc1"
  categoryLabel: "label 0"
- molecule: "N=C(N)c1ccc(OCCCCCOc2ccc(C(=N)N)cc2)cc1"
  categoryLabel: "label 1"
- molecule: "CCCN(CCC)CCc1cccc2c1CC(=O)N2"
  categoryLabel: "label 0"
- molecule: "NC(=O)OCC(COC(N)=O)c1ccccc1"
  categoryLabel: "label 0"
- molecule: "OCCN(CCO)c1nc(N2CCCCC2)c2nc(N(CCO)CCO)nc(N3CCCCC3)c2n1"
  categoryLabel: "label 0"
- molecule: "O=C(O)CCNC(=O)c1ccc(N=Nc2ccc(O)c(C(=O)O)c2)cc1"
  categoryLabel: "label 0"
- molecule: "Nc1nc(=S)c2[nH]cnc2[nH]1"
  categoryLabel: "label 1"
- molecule: "C[C@](N)(Cc1ccc(O)c(O)c1)C(=O)O"
  categoryLabel: "label 0"
- molecule: "CC(CN(C)C)CN1c2ccccc2CCc2ccccc21 (stereo unspecified)"
  categoryLabel: "label 0"
- molecule: "O=C(O)c1cn(C2CC2)c2cc(N3CCNCC3)c(F)cc2c1=O"
  categoryLabel: "label 0"
- molecule: "CCCC(=O)Nc1ccc(OCC(O)CNC(C)C)c(C(C)=O)c1 (stereo unspecified)"
  categoryLabel: "label 0"
- molecule: "CC1NCCOC1c1ccccc1 (stereo unspecified)"
  categoryLabel: "label 0"
- molecule: "Cc1ccccc1C(OCCN(C)C)c1ccccc1 (stereo unspecified)"
  categoryLabel: "label 0"
